Target entity: hCB1R (Homo sapiens)
Assay info: Binding affinity at human cannabinoid receptor 1
Condition set: pKi, hCB1R, one site, FIG. 5
Outcome measure: Ki (nM)
Kindly provide the numeric value in nM only, without the unit symbol.

Form field - read-out: Ki; system: hCB1R (Homo sapiens); submitted item: CCCCCc1cc(O)c2c(c1)OC(C)(C)c1ccc(C)cc1-2 [CBN, cannabinol, reference compound]
631

---

Ki overview
Target entity: UniProt P34972
Put your answer as a value accompanied by its unit after it.

Some compounds with known Ki results, for comparison:
| Compound | Ki |
| --- | --- |
| CCCCCCC(C)(C)c1cc(O)c2c(c1)OC(C)(C)c1ccc(C)c(CO)c1-2 | 0.933 nM |
| CCCCCCC(C)(C)c1cc(OC(C)=O)c2c(c1)OC(C)(C)c1ccc(C)c(COC(C)=O)c1-2 | 195 nM |

API: the following record is the query input.
Given the entry CCCCCc1cc(O)c2c(c1)OC(C)(C)c1ccc(C)cc1-2 [CBN, cannabinol, reference compound] , report its measured Ki.
138 nM

---

Target entity: hCB1R (Homo sapiens, UniProt P21554)
Sequence (P21554 whole entry): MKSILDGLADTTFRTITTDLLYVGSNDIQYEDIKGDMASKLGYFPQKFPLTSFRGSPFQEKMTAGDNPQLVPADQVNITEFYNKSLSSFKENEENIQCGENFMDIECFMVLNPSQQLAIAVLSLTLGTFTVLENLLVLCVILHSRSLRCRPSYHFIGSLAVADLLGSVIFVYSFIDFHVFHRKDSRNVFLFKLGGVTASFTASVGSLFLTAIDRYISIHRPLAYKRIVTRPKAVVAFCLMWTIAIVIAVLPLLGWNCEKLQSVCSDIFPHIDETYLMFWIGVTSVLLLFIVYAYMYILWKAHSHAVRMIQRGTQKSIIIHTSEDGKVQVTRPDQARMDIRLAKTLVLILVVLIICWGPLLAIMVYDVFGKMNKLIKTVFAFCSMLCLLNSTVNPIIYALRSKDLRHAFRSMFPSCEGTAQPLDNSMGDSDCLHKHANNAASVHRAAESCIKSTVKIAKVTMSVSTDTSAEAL
Assay info: Binding affinity at human cannabinoid receptor 1
Condition set: Ki (nM), hCB1R
Ki overview
Kindly provide the numeric value in nM only, without the unit symbol.

Some molecules with known Ki results, for comparison:
| Molecule | Numeric readout |
| --- | --- |
| CCCCCc1cc(O)c2c(c1)OC(C)(C)c1ccc(C)cc1-2 [CBN, cannabinol, reference compound] | 240 |
| CCCCCCC(C)(C)c1cc(OC(C)=O)c2c(c1)OC(C)(C)c1ccc(C)c(COC(C)=O)c1-2 | 1200 |

API: the following record is the query input.
Given the entry CCCCCCC(C)(C)c1cc(O)c2c(c1)OC(C)(C)c1ccc(C)c(CO)c1-2 , report its measured Ki.
0.661

---

Target entity: UniProt P21554
Assay info: Functional activity (agonism), TRUPATH assay of Gαiβ3γ9 protein activation
EC50 overview
Kindly provide the numeric value in µM only, without the unit symbol.

| Molecule smiles | Target entity | Outcome measure | Unit spec | Numeric readout |
| --- | --- | --- | --- | --- |
| CCCCCCC(C)(C)c1cc(OC(C)=O)c2c(c1)OC(C)(C)c1ccc(C)c(COC(C)=O)c1-2 | UniProt P21554 | EC50 | µM | 7.08 |

API: the following record is the query input.
Given the entry CCCCCCC(C)(C)c1cc(O)c2c(c1)OC(C)(C)c1ccc(C)c(CO)c1-2 , report its measured EC50.
0.0263

---

Target entity: hCB2R (Homo sapiens)
Sequence (P34972 whole entry): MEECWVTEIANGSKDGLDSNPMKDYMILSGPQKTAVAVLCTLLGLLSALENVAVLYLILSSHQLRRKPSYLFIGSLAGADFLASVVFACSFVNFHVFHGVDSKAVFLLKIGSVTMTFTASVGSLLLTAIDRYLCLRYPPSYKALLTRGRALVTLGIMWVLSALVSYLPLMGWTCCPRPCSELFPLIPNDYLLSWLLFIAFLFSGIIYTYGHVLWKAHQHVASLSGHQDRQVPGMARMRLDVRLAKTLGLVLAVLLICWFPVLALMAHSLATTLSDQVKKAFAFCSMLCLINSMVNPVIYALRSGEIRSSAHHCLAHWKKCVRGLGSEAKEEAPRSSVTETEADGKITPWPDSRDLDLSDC
Assay info: Functional activity (agonism), TRUPATH assay of Gαiβ3γ9 protein activation
Outcome measure: EC50 (nM)
Kindly provide the numeric value in nM only, without the unit symbol.

| Molecule | Unit spec | EC50 |
| --- | --- | --- |
| CCCCCCC(C)(C)c1cc(OC(C)=O)c2c(c1)OC(C)(C)c1ccc(C)c(COC(C)=O)c1-2 [axCBN-4] | nM | 178 |

API: the following record is the query input.
Given the entry CCCCCCC(C)(C)c1cc(O)c2c(c1)OC(C)(C)c1ccc(C)c(CO)c1-2 [axCBN-3] , report its measured EC50.
3.47

---

Target entity: hCB1R (Homo sapiens)
Assay info: Binding affinity at human cannabinoid receptor 1
Condition set: pKiHi (high affinity site), hCB1R, two site binding model, FIG. 5
Outcome measure: pKi
Quick note: pKi values are minus log10 of concentrations in mol/L.

Form field - read-out: pKi; system: hCB1R (Homo sapiens); submitted item: CCCCCCC(C)(C)c1cc(O)c2c(c1)OC(C)(C)c1ccc(C)c(CO)c1-2 [axCBN-3]
9.40
